Test system: HepG2
Assay: GSK_TCMDC: Percent inhibition of human HepG2 cell line. Test compounds present at 10uM.
Format: functional
measureName: Inhibition (%)
Kindly answer with a numeric value in %, unit omitted.

Some entries whose results are on file:
1. Cc1cc(Oc2cc(NC(=O)c3sc4ncn(Cc5ccccc5F)c(=O)c4c3C)cc([N+](=O)[O-])c2)ccc1Cl | 2
2. COCCNCC(O)Cn1c2ccc(Cl)cc2c2cc(Cl)ccc21 (stereo not drawn) | 15
3. C=CCc1cc(Cc2cnc(N)nc2N)c2ccc(C)nc2c1O | 51
4. CCOc1cccc(C(=O)Nc2cccc(CN3CCCN(Cc4cccc(O)c4)CC3)c2)c1.O=C(O)C(F)(F)F | 17
5. NC(=O)C1CCN(Cc2cccc(-c3cccc(-c4nc5cc(F)ccc5[nH]4)c3)c2)CC1.O=C(O)C(F)(F)F | 15
6. COc1ccc2nccc([C@@H](O)CN3CCC(NCc4cc5ccccc5nn4)CC3)c2c1.O=C(O)C(=O)O | 5
7. Br.CCOc1ccc(CCCON2C(=N)N=C(N)NC2(C)C)cc1 | 65
8. CC(=O)Nc1nc(C(=O)Nc2cccc(-c3ccc(-c4nc5ccccc5[nH]4)cc3)c2)cs1 | 88
9. CCC1(C)N=C(N)N=C(N)N1c1ccc(Cl)cc1.Cl (stereo not drawn) | 7
10. Cl.FC(F)(F)c1cc(Nc2ncnc3ccc(Br)cc23)ccc1OCc1ccccc1 | 12

Give its Inhibition value. Item: CC1(C)CNCc2cc(NC(=O)/C=C/c3ccc(Cl)cc3)ccc21.Cl
23

Give its Inhibition value. Item: Cc1ccc(-c2cc(C(=O)Nc3ccc(S(=O)(=O)N4CCCCC4C)cc3)n[nH]2)c(O)c1 (stereo not drawn)
37

Give its Inhibition value. Item: CN(CC(=O)Nc1cc(C(F)(F)F)ccc1-n1cncn1)Cc1ccc2ccccc2c1
18

Give its Inhibition value. Item: COc1ccc(Nc2nccc(-c3ccc4c(-c5ccsc5)cnc(N)c4c3)n2)cc1
38

Give its Inhibition value. Item: Cl.O=C(NC1CCC(CCN2Cc3cccc(C(F)(F)F)c3C2)CC1)c1cccc(-c2cccnc2)c1 (stereo not drawn)
26

Give its Inhibition value. Item: CN(C)c1nc(NN=Cc2cc(Cl)ccc2O)nc(Nc2ccc(F)cc2)n1
32

Give its Inhibition value. Item: Cc1cccc2nc(-c3ccc(-c4ccc(C(=O)NCCN5CCCC5)cc4)s3)[nH]c12
20

###

Quick reference: Inhibition of the listed items.
System: Plasmodium falciparum
Test: GSK_TCMDC: Inhibition of Plasmodium falciparum Dd2 in whole red blood cells, using parasite LDH activity as an index of growth. Test compounds present at 2uM
Type: functional
Kindly answer with a numeric value in %, unit omitted.

Some entries whose results are on file:
1) FC(F)(F)c1ccc2[nH]c(-c3ccc(-c4cccc(CNCC5CCCO5)c4)s3)nc2c1.O=C(O)C(F)(F)F (configuration not stated) | 99
2) COC(=O)c1ccc(OCC(C)NCC(O)c2cccc(C(F)(F)F)c2)cc1.O=C(O)/C=C/C(=O)O (configuration not stated) | 81
3) Cc1noc(C)c1-c1ccc2c(Nc3cccc4c3-c3ccccc3C4=O)c(C(=O)NCc3ccccc3I)cnc2c1 | 99
4) COc1ccc(CCNCCCCCCNCCc2cccc([N+](=O)[O-])c2)cc1OC.Cl | 0

Give its Inhibition value. Item: O=C(Nc1nc(-c2ccccn2)cs1)c1ccccc1COc1ccccc1
42

Give its Inhibition value. Item: CC(C)NCc1cccc(-c2ccc(NC(=O)c3ccc(F)cc3)cc2)c1.O=C(O)C(F)(F)F
3

Give its Inhibition value. Item: O=C(/C=C/c1ccc(Cl)c(Cl)c1)NCCCCCN1CCC(NC(=O)Nc2ccc3c(c2)OCO3)CC1
5

Give its Inhibition value. Item: CCOc1cc(C(=O)NCc2cccc(C(F)(F)F)c2)ccc1-c1nc2cc(Cl)ccc2[nH]1
31

Taken from ChEMBL document CHEMBL1157539.
